Where these numbers come from: ChEMBL document CHEMBL1961873

target-entity: Dual specificity mitogen-activated protein kinase kinase 1 (Homo sapiens) (UniProt Q02750);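 also: values reported are mean inhibition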
Sequence (Q02750 whole entry): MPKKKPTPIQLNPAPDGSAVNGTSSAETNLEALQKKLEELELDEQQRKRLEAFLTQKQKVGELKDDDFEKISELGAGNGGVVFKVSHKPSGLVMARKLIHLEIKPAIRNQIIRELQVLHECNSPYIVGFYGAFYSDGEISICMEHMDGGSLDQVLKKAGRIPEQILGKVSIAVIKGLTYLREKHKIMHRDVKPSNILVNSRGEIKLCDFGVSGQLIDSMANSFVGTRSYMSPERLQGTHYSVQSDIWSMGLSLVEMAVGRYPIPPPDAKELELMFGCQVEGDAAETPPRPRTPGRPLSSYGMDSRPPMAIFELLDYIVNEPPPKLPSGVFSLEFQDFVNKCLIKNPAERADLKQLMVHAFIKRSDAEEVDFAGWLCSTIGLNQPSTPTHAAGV
recorded-conditions: at 1 µM
reported-property: inhibition

mol-smiles	reading
Fc1ccc(-c2ncn(CCCN3CCOCC3)c2-c2ccncc2)cc1	0.32%
COc1ccc2cc(-c3c(-c4ccncc4)nc(-c4ccc(S(C)(=O)=O)cc4C)n3C)ccc2c1	4.97%
CN(C)CCOc1ccc(-c2cc(-c3ccc4c(c3)CCC4=NO)c(-c3ccncc3)o2)cc1	2.23%
CCS(=O)(=O)c1ccc(OC)c(Nc2ncc(-c3ccccc3Cl)o2)c1	0.4%
Fc1ccc(-c2nc3n(c2-c2ccncc2)CCS3)cc1	5.11%
COc1ccc2ncn(-c3cc(O[C@H](C)c4ccccc4Cl)c(C(N)=O)s3)c2c1	2.76%
COc1cccc(/C=N/Nc2ncnc3c2cnn3-c2cccc(OC)c2)c1	2.66%
Cc1nnc(-c2ccc(C)c(-c3ccc(C(=O)NCc4ccc(Cl)cc4)cc3)c2)o1	4.13%
CCN(CC)Cc1ccc(Nc2nccc(-c3cnn4ncccc34)n2)cc1	13.1%
COc1ccc(C2=C(N3CCc4ccccc43)C(=O)NC2=O)cc1	4.03%
N#Cc1ccc(Oc2nccc(-c3c(-c4ccc(F)cc4)ncn3C3CCNCC3)n2)cc1	3.84%
COC(=O)Nc1nc2ccc(Sc3ccc(NC(=O)Nc4cc(C(F)(F)F)ccc4F)cc3)cc2[nH]1	0.12%
O=C(Nc1n[nH]c2cc(-c3cc(F)ccc3F)ccc12)C1CC1	4.19%
CCc1cccc(CC)c1/C=C/c1cncc(C(=O)NC)c1	2.68%
COc1cc(Nc2ncc3c(C)nc(-c4cccc(C(F)(F)F)c4)n3n2)cc(OC)c1OC	10.7%
NC(=O)c1cc(-c2ccc(F)cc2)cc(-c2ccncc2)c1N	3.83%
Fc1ccc(-c2ncn(C3CCNCC3)c2-c2ccnc(Oc3ccc4c(c3)OCO4)n2)cc1	8.82%
COc1cc2ncn(-c3cc(OCc4ccccc4C(F)(F)F)c(C(C)=O)s3)c2cc1OC	3.7%
Fc1ccc(-c2ncn(C3CCNCC3)c2-c2ccnc(Oc3ccc(F)c(F)c3)n2)cc1	3.8%
CS(=O)(=O)CCNCc1cc(-c2cc3c(Nc4ccc(OCc5cccc(F)c5)c(Cl)c4)ncnc3s2)cs1	5.74%
